protocol.description: self-splicing fitness, log relative to wild type (ln ratio); higher = more splicing; Tetrahymena group I intron in knt gene, E. coli kanamycin selection, DiMSum; sequences stand for … in CUCUCU…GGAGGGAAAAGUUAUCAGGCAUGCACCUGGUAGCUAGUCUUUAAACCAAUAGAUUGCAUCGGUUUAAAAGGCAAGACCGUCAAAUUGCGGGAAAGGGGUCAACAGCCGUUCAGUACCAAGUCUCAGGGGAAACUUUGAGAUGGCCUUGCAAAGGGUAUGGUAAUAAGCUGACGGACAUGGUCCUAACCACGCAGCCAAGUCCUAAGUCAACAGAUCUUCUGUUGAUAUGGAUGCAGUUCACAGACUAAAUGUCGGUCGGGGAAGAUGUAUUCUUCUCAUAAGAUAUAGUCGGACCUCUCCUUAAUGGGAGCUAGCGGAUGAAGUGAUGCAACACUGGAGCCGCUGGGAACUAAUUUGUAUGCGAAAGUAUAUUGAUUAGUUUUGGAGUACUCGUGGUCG;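 note: selection with 25 µg/mL kanamycin versus none on LB agar overnight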
condition.context: 37 °C
Given measured self-splicing fitness (ln), output t if it is greater than or equal to -2 and f if not.

INPUT: hey, is self-splicing fitness (ln) for this one >= -2? "CGCAAGCAAUAUUACGAGGA"
OUTPUT: f

INPUT: hey, is self-splicing fitness (ln) for this one >= -2? "AGCAAGCAAUAUUACGGCAA"
OUTPUT: t

INPUT: hey, is self-splicing fitness (ln) for this one >= -2? "UUCCAGCAAUAUUACGACUG"
OUTPUT: f

INPUT: hey, is self-splicing fitness (ln) for this one >= -2? "UACAAGCAAUAUUACGAGUC"
OUTPUT: t

INPUT: hey, is self-splicing fitness (ln) for this one >= -2? "ACGAAGCAAUAUUACGGCAG"
OUTPUT: t

INPUT: hey, is self-splicing fitness (ln) for this one >= -2? "CAGAAGCAAUAUUACGGAUA"
OUTPUT: t

INPUT: hey, is self-splicing fitness (ln) for this one >= -2? "CGUGAGCAAUAUUACGUAGC"
OUTPUT: t

INPUT: hey, is self-splicing fitness (ln) for this one >= -2? "GAAAAGCAAUAUUACGUAGA"
OUTPUT: t

###

protocol.description: self-splicing fitness, log relative to wild type (ln ratio); higher = more splicing; Tetrahymena group I intron in knt gene, E. coli kanamycin selection, DiMSum; sequences stand for … in CUCUCU…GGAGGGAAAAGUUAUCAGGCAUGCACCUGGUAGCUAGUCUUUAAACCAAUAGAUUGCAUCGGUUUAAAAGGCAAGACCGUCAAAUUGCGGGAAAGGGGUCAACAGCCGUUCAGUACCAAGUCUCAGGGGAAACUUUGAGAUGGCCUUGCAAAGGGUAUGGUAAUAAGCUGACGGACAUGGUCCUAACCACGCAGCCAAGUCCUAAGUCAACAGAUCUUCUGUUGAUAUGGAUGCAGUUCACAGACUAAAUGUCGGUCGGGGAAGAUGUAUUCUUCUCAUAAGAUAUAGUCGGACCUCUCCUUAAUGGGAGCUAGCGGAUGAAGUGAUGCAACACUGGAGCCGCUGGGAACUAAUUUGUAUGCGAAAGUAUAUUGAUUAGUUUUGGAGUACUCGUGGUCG
condition.context: 30 °C
Given measured self-splicing fitness (ln), output class 1 if it is greater than or equal to -2 and class 0 if not.

INPUT: hey, is self-splicing fitness (ln) for this one >= -2? "CUUAAGCAAUAUUACGUCGU"
OUTPUT: class 0

INPUT: hey, is self-splicing fitness (ln) for this one >= -2? "GAGGAGCAAUAUUACGCCUA"
OUTPUT: class 1

INPUT: hey, is self-splicing fitness (ln) for this one >= -2? "CUGUAGCAAUAUUACGCGGG"
OUTPUT: class 0

INPUT: hey, is self-splicing fitness (ln) for this one >= -2? "AUGAAGCAAUAUUACGAGUU"
OUTPUT: class 0

INPUT: hey, is self-splicing fitness (ln) for this one >= -2? "GUAAAGCAAUAUUACGUACC"
OUTPUT: class 0

INPUT: hey, is self-splicing fitness (ln) for this one >= -2? "UUAGAGCAAUAUUACGAUCG"
OUTPUT: class 1

INPUT: hey, is self-splicing fitness (ln) for this one >= -2? "AUGAAGCAAUAUUACGCCAC"
OUTPUT: class 1

INPUT: hey, is self-splicing fitness (ln) for this one >= -2? "UAGGAGCAAUAUUACGUGUG"
OUTPUT: class 0

INPUT: hey, is self-splicing fitness (ln) for this one >= -2? "UGACAGCAAUAUUACGGUAA"
OUTPUT: class 1

INPUT: hey, is self-splicing fitness (ln) for this one >= -2? "GCGCAGCAAUAUUACGUAUU"
OUTPUT: class 1

INPUT: hey, is self-splicing fitness (ln) for this one >= -2? "UGCGAGCAAUAUUACGUCGC"
OUTPUT: class 1

INPUT: hey, is self-splicing fitness (ln) for this one >= -2? "GCGUAGCAAUAUUACGUCCA"
OUTPUT: class 1

INPUT: hey, is self-splicing fitness (ln) for this one >= -2? "AGUAAGCAAUAUUACGACCC"
OUTPUT: class 1

INPUT: hey, is self-splicing fitness (ln) for this one >= -2? "CCCAAGCAAUAUUACGGUAC"
OUTPUT: class 0

INPUT: hey, is self-splicing fitness (ln) for this one >= -2? "CCGAAGCAAUAUUACGAAAA"
OUTPUT: class 1

INPUT: hey, is self-splicing fitness (ln) for this one >= -2? "GUAUAGCAAUAUUACGCUGU"
OUTPUT: class 0

INPUT: hey, is self-splicing fitness (ln) for this one >= -2? "CUGCAGCAAUAUUACGAAUA"
OUTPUT: class 1

INPUT: hey, is self-splicing fitness (ln) for this one >= -2? "CGCCAGCAAUAUUACGCGCC"
OUTPUT: class 1

INPUT: hey, is self-splicing fitness (ln) for this one >= -2? "GUACAGCAAUAUUACGGCGC"
OUTPUT: class 1

INPUT: hey, is self-splicing fitness (ln) for this one >= -2? "UUCGAGCAAUAUUACGAUAU"
OUTPUT: class 0

INPUT: hey, is self-splicing fitness (ln) for this one >= -2? "GUAGAGCAAUAUUACGGCUA"
OUTPUT: class 1

INPUT: hey, is self-splicing fitness (ln) for this one >= -2? "UUCCAGCAAUAUUACGACCG"
OUTPUT: class 1

INPUT: hey, is self-splicing fitness (ln) for this one >= -2? "AUCCAGCAAUAUUACGAAAA"
OUTPUT: class 1

INPUT: hey, is self-splicing fitness (ln) for this one >= -2? "GACUAGCAAUAUUACGUGCG"
OUTPUT: class 1

INPUT: hey, is self-splicing fitness (ln) for this one >= -2? "GACUAGCAAUAUUACGAAUG"
OUTPUT: class 0

INPUT: hey, is self-splicing fitness (ln) for this one >= -2? "ACUUAGCAAUAUUACGUGUC"
OUTPUT: class 0

INPUT: hey, is self-splicing fitness (ln) for this one >= -2? "UGAGAGCAAUAUUACGGUCA"
OUTPUT: class 1

INPUT: hey, is self-splicing fitness (ln) for this one >= -2? "GGAAAGCAAUAUUACGCAAG"
OUTPUT: class 1

INPUT: hey, is self-splicing fitness (ln) for this one >= -2? "GCAAAGCAAUAUUACGAGGA"
OUTPUT: class 0

INPUT: hey, is self-splicing fitness (ln) for this one >= -2? "UGUUAGCAAUAUUACGGGGC"
OUTPUT: class 0

INPUT: hey, is self-splicing fitness (ln) for this one >= -2? "UCGGAGCAAUAUUACGGUCU"
OUTPUT: class 1

INPUT: hey, is self-splicing fitness (ln) for this one >= -2? "UGGGAGCAAUAUUACGCACA"
OUTPUT: class 1

INPUT: hey, is self-splicing fitness (ln) for this one >= -2? "AGAGAGCAAUAUUACGUGAU"
OUTPUT: class 0

###

Can you tell me self-splicing fitness (ln) for the items I'm about to list?
protocol.description: self-splicing fitness, log relative to wild type (ln ratio); higher = more splicing; Tetrahymena group I intron in knt gene, E. coli kanamycin selection, DiMSum; sequences stand for … in CUCUCU…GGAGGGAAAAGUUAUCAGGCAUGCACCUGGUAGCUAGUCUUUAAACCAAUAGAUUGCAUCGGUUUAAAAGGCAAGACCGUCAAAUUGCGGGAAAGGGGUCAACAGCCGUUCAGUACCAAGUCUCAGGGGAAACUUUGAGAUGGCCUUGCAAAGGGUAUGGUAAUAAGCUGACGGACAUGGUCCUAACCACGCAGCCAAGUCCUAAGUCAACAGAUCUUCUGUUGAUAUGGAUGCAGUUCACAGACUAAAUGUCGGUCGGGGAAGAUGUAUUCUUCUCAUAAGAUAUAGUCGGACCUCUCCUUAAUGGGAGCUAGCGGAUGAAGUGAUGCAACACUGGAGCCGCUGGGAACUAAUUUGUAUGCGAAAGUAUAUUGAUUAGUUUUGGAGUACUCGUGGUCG
condition.context: 30 °C

INPUT: Recorded self-splicing fitness (ln) for "CUGGAGCAAUAUUACGUUGU" , please?
OUTPUT: -2.64

INPUT: Recorded self-splicing fitness (ln) for "CGGUAGCAAUAUUACGUCAU" , please?
OUTPUT: -3.21

INPUT: Recorded self-splicing fitness (ln) for "CCCCAGCAAUAUUACGACAU" , please?
OUTPUT: -3.94

INPUT: Recorded self-splicing fitness (ln) for "CGACAGCAAUAUUACGCAUA" , please?
OUTPUT: -3.03

INPUT: Recorded self-splicing fitness (ln) for "GGACAGCAAUAUUACGCAAG" , please?
OUTPUT: -1.69

INPUT: Recorded self-splicing fitness (ln) for "CGUAAGCAAUAUUACGUCUC" , please?
OUTPUT: -3.77

INPUT: Recorded self-splicing fitness (ln) for "AGUUAGCAAUAUUACGGGAU" , please?
OUTPUT: -3.18

INPUT: Recorded self-splicing fitness (ln) for "CGUCAGCAAUAUUACGCAUU" , please?
OUTPUT: -3.62

INPUT: Recorded self-splicing fitness (ln) for "CGAAAGCAAUAUUACGGAAA" , please?
OUTPUT: -2.9

INPUT: Recorded self-splicing fitness (ln) for "CACGAGCAAUAUUACGCCUU" , please?
OUTPUT: -2.3

INPUT: Recorded self-splicing fitness (ln) for "GAUUAGCAAUAUUACGACCU" , please?
OUTPUT: -0.343

INPUT: Recorded self-splicing fitness (ln) for "GUCCAGCAAUAUUACGCUUA" , please?
OUTPUT: -0.882

INPUT: Recorded self-splicing fitness (ln) for "AUGGAGCAAUAUUACGCAGC" , please?
OUTPUT: -2.14

INPUT: Recorded self-splicing fitness (ln) for "GAGCAGCAAUAUUACGUUUC" , please?
OUTPUT: -3.37

INPUT: Recorded self-splicing fitness (ln) for "UCAGAGCAAUAUUACGCCUG" , please?
OUTPUT: -3.63

INPUT: Recorded self-splicing fitness (ln) for "UGUAAGCAAUAUUACGGCGA" , please?
OUTPUT: -0.0897

INPUT: Recorded self-splicing fitness (ln) for "AAGCAGCAAUAUUACGACCU" , please?
OUTPUT: 0.301

INPUT: Recorded self-splicing fitness (ln) for "AGAGAGCAAUAUUACGCGAA" , please?
OUTPUT: -3.26

INPUT: Recorded self-splicing fitness (ln) for "GUACAGCAAUAUUACGUUCU" , please?
OUTPUT: -1.98

INPUT: Recorded self-splicing fitness (ln) for "GACCAGCAAUAUUACGGGCU" , please?
OUTPUT: -2.93

INPUT: Recorded self-splicing fitness (ln) for "ACGCAGCAAUAUUACGAAGC" , please?
OUTPUT: -3.38

INPUT: Recorded self-splicing fitness (ln) for "CCAGAGCAAUAUUACGCUCG" , please?
OUTPUT: -2.32

INPUT: Recorded self-splicing fitness (ln) for "GAUCAGCAAUAUUACGAGAA" , please?
OUTPUT: -1.89

INPUT: Recorded self-splicing fitness (ln) for "GAGCAGCAAUAUUACGACUA" , please?
OUTPUT: -0.925

INPUT: Recorded self-splicing fitness (ln) for "ACAAAGCAAUAUUACGGGUU" , please?
OUTPUT: -2.54

INPUT: Recorded self-splicing fitness (ln) for "GAUCAGCAAUAUUACGCUGA" , please?
OUTPUT: -3.83

INPUT: Recorded self-splicing fitness (ln) for "GGCGAGCAAUAUUACGGACU" , please?
OUTPUT: -0.419

INPUT: Recorded self-splicing fitness (ln) for "GGCAAGCAAUAUUACGUGAA" , please?
OUTPUT: -0.509

INPUT: Recorded self-splicing fitness (ln) for "CUAAAGCAAUAUUACGGAGA" , please?
OUTPUT: -2.83

INPUT: Recorded self-splicing fitness (ln) for "CUCGAGCAAUAUUACGGCAG" , please?
OUTPUT: -1.71

INPUT: Recorded self-splicing fitness (ln) for "GAGUAGCAAUAUUACGGCGG" , please?
OUTPUT: -4.56

INPUT: Recorded self-splicing fitness (ln) for "UCGUAGCAAUAUUACGUUUA" , please?
OUTPUT: -1.5

INPUT: Recorded self-splicing fitness (ln) for "AUGUAGCAAUAUUACGCCUU" , please?
OUTPUT: -0.114

INPUT: Recorded self-splicing fitness (ln) for "UCCGAGCAAUAUUACGGGAU" , please?
OUTPUT: -3.44
